Every entry's value here was drawn from ChEMBL document CHEMBL1909577.

experimental target: 11-beta-hydroxysteroid dehydrogenase 1 (Mus musculus)
Sequence (P50172 whole entry): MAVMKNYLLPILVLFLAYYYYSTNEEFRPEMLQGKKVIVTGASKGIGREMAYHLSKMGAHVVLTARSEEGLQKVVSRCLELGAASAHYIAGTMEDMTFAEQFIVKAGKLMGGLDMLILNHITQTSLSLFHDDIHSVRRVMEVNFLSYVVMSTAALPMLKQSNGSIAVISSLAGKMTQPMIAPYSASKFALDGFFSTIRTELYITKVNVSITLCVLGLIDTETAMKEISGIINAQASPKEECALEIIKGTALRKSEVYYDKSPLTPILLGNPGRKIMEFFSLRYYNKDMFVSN
measurement protocol: Inhibition of mouse 11beta-HSD1
measured metric: IC50 (nM)
Numeric only. Scale: nM

Problem: Request the reported IC50 associated with N#Cc1c(O)nc(Sc2ccccc2Cl)c2c1CCCC2
Solution: 95

Problem: Find the recorded IC50 belonging to N#Cc1ncccc1CSc1nc(O)c(C#N)c2c1COCC2 and report it.
Solution: 105

Problem: Sample CS(=O)(=O)c1ccccc1CSc1nc(O)c(C#N)c2c1CCCC2 — what was its IC50?
Solution: 10

###

Provide the recorded Stability for the entries that follow.
System: Liver
measurement conditions: mouse, microsomes, 10 min, 300 µM
Description: Metabolic stability of the compound in mouse liver microsomes assessed as stability rate per mg of protein at 300 uM after 10 mins by LC-MS/MS analysis in presence of NADPH
Express it in nmol/min; write the number only.

Problem: Look up Stability: N#Cc1c(O)nc(S(=O)(=O)Cc2ccccc2Cl)c2c1CCCC2
Solution: 0.12

Problem: Given the compound N#Cc1c(O)nc(SCc2ccc(Cl)cc2)c2c1CCCC2 , what is its reported Stability?
Solution: 0.3

Problem: Any idea what Stability was measured for CS(=O)(=O)c1ccccc1CSc1nc(O)c(C#N)c2c1CCCC2 ?
Solution: 0.11

Problem: Reported Stability for N#Cc1ccccc1CSc1nc(O)c(C#N)c2c1CCCC2 : what is it?
Solution: 0.23

Problem: Look at this compound and give its reported Stability. N#Cc1ccc(F)c(CSc2nc(O)c(C#N)c3c2CCCC3)c1
Solution: 0.12
